# Test system: KRas-mediated phosphorylation of ERK in H460 cells
# procedure.text: Inhibition of KRas-mediated phosphorylation of ERK (Cisbio HTRF pERK), H460 cells
# Type: cell-based
# condition.summary: Homo sapiens, NCI-H460, HTRF pERK
# Procedure: Inhibition of KRas Phosphorylation of ERK (HTRF) by Exemplary Compounds of Formula (I) Cisbio HTRF Advanced PERK Assay Catalog #64[…] […] Add 10 mL of media to stop trypsinizing. Pipette the cells into a conical bottom 50 mL centrifuge tube and centrifuge 5 min×1000 rpm. […] Re-suspend the cell pellet in media, take a cell count, and then adjust the cell density using fresh media. […] At the end of incubation, read plate on the Envision after centrifuging plate 30 sec×1000 rpm.
observed.property: IC50

molecule	measured.on	IC50
CCc1c(F)ccc2cc(O)cc(-c3ncc4c(N5CC6CCC(C5)C65OCCO5)nc(OC[C@@]56CCCN5C[C@H](F)C6)nc4c3F)c12	KRas-mediated phosphorylation of ERK in H460 cells	211 nM

The molecule CCc1c(F)ccc2cc(O)cc(-c3ncc4c(N5CC6CCC(COCCOC)(C6)C5)nc(OC[C@@]56CCCN5C[C@H](F)C6)nc4c3F)c12 (some centres unmarked) , when measured on KRas-mediated phosphorylation of ERK in H460 cells, yielded IC50 of 144 nM

The molecule CCc1c(F)ccc2cc(O)cc(-c3ncc4c(N5CCC[C@]6(C5)NC(=O)NC6=O)nc(OCC56CCCN5C/C(=C\F)C6)nc4c3F)c12 (some centres unmarked) , when measured on KRas-mediated phosphorylation of ERK in H460 cells, yielded IC50 of 6 nM

The molecule O=C1NC(=O)[C@]2(CCCN(c3nc(OC[C@@]45CCCN4C[C@H](F)C5)nc4c(F)c(-c5c(C6CC6)c(Cl)cc6[nH]ncc56)ncc34)C2)N1 , when measured on KRas-mediated phosphorylation of ERK in H460 cells, yielded IC50 of 246 nM

The molecule CCc1c(F)ccc2cc(O)cc(-c3ncc4c(N5C[C@H]6CC[C@@](C(=O)NC)(C5)C6(F)F)nc(OC[C@@]56CCCN5C[C@H](F)C6)nc4c3F)c12 , when measured on KRas-mediated phosphorylation of ERK in H460 cells, yielded IC50 of 590 nM

The molecule CCc1c(F)ccc2cc(O)cc(-c3ncc4c(N5CCC[C@@](C)(O)C5)nc(OCC56CC5CN(C)C6)nc4c3F)c12 (some centres unmarked) , when measured on KRas-mediated phosphorylation of ERK in H460 cells, yielded IC50 of 92 nM

The molecule CCc1c(F)ccc2cc(O)cc(-c3ncc4c(N5CCCn6nc(C(=O)N(C)C)c(C)c6C5)nc(OC[C@@]56CCCN5C[C@H](F)C6)nc4c3F)c12 , when measured on KRas-mediated phosphorylation of ERK in H460 cells, yielded IC50 of 17 nM
